tested on: human apolipoprotein B mRNA; experiment: Inhibition of human apolipoprotein B mRNA levels in HepG2 cells, quantitative real-time PCR; type: cell-based; set-up: concentration or dose not given beside the values; details: averages from two experiments
Oligonucleotides are written 5' to 3', each unit as a sugar letter and its base; * is a phosphorothioate linkage, no mark a phosphodiester; rarer units and linkages stand in square brackets, end groups in braces. Plain capitals give the bases only. e = 2'-O-(2-methoxyethyl) (MOE); [5mC] = 5-methylcytosine; d = 2'-deoxy (DNA)
Provide the reported %INHIB of human apolipoprotein B mRNA levels of each item.
Please give a number only; it is taken to be in %.

Report %INHIB of human apolipoprotein B mRNA levels for 147790 (antisense eT*eG*eT*eG*e[5mC]*dT*dA*d[5mC]*d[5mC]*dA*dT*d[5mC]*d[5mC]*d[5mC]*dA*eT*eA*e[5mC]*eT*eT) [compound 147790] please.
33

Entry under review: 147810 (antisense eA*eT*eT*eT*e[5mC]*dA*dG*d[5mC]*dA*dT*dA*dT*dG*dA*dG*e[5mC]*e[5mC]*e[5mC]*eA*eT) [compound 147810] . Reported %INHIB of human apolipoprotein B mRNA levels?
0

Please give the measured %INHIB of human apolipoprotein B mRNA levels for this substance: 147825 (antisense eA*eG*eA*eA*eG*d[5mC]*dT*dG*d[5mC]*d[5mC]*dT*d[5mC]*dT*dT*d[5mC]*eT*eT*e[5mC]*e[5mC]*e[5mC]) [compound 147825]
72

Reported %INHIB of human apolipoprotein B mRNA levels for 147794 (antisense eG*eT*eA*eA*eT*d[5mC]*dT*dT*d[5mC]*dA*dT*d[5mC]*d[5mC]*d[5mC]*d[5mC]*eA*eG*eT*eG*e[5mC]) [compound 147794] : what is it?
47
